The measurements presented in this section are drawn from ChEMBL document CHEMBL1833959.

Listed next: entries and their corresponding fold change (FC).
Assay: Inhibition of hedgehog signaling pathway in mouse Ptch+/- p53-/- medulloblastoma cells assessed as inhibition of receptor-mediated Gli1 transcriptional activity at antiproliferative IC90 concentration after 24 hrs by RT-PCR analysis relative to control
reported-metric: fold change (FC)

* CC1(CCn2ncn(-c3ccc(N4CCN(c5ccc(OC[C@@H]6CO[C@@](Cn7cncn7)(c7ccc(Cl)cc7Cl)O6)cc5)CC4)cc3)c2=O)N=N1 | 0.16
* CCC#CCCn1ncn(-c2ccc(N3CCN(c4ccc(OC[C@@H]5CO[C@@](Cn6cncn6)(c6ccc(Cl)cc6Cl)O5)cc4)CC3)cc2)c1=O | < 0.15
* CCC(C)n1ncn(-c2ccc(N3CCN(c4ccc(OCC5COC(Cn6cncn6)(c6ccc(Cl)cc6Cl)O5)cc4)CC3)cc2)c1=O (stereo not given) [ITRACONAZOLE] | < 0.15
* Cn1ncn(-c2ccc(N3CCN(c4ccc(OC[C@@H]5CO[C@@](Cn6cncn6)(c6ccc(Cl)cc6Cl)O5)cc4)CC3)cc2)c1=O | > 0.45
* CCCCCn1ncn(-c2ccc(N3CCN(c4ccc(OC[C@@H]5CO[C@@](Cn6cncn6)(c6ccc(Cl)cc6Cl)O5)cc4)CC3)cc2)c1=O | < 0.15
